# method.description: NCI Yeast Anticancer Drug Screen. Data for the mlh1 rad18 strain (AID 175)
# experimental.setup: S. cerevisiae mlh1 rad18 strain growth inhibition; at 50.0 µM
# Description: Growth inhibition of yeast strains with defined genetic alterations is measured as a screen for potential anti-cancer activity. Selected strains with alterations in DNA damage repair or cell cycle control were exposed to compounds and growth inhibition was measured relative to vehicle treated controls. The strain used in this assay is mlh1 rad18
The panel holds about 79,000 compounds, 15% with a hit somewhere; the sample as a whole holds those more often. The source made the active and inactive calls. Cut-off read from the data, not from the text of the source: active = growth inhibition above about 70%; inactive = the rest.
Classes used: active, inactive

> print(dat)
                                    compound  assigned.label
 1  CC1([N+](=O)[O-])COP(=O)(NCc2ccccc2)OC1 (stereo unspecified)        inactive
 2                       Nc1nc(N)[nH]c(=O)n1        inactive
 3  COc1ccc(CN2CCCN(Cc3ccc(OC)cc3OC)C2c2ccc(N(CCCl)CCCl)cc2)c(OC)c1        inactive
 4  COc1ccc2nc3ccccc3c(NCCCCCCN(CCCl)CCCl)c2c1          active
 5        CCOP(=O)(OCC)/C(C#N)=C/c1cccc(F)c1        inactive
 6  O=C(O)C1C2Cc3ccccc3C21 (stereo unspecified)        inactive
 7  CC1(C)N=C(N)N=C(N)N1c1ccc(OCCCCNC(=O)Nc2ccc(S(=O)(=O)F)cc2)c(Cl)c1          active
 8  CC1CN=C(Nc2ccc(F)c(Cl)c2)S1 (stereo unspecified)        inactive
 9          O=[N+]([O-])/C=C\c1ccc2c(c1)OCO2          active
10  CCC1=C(CC2NCCc3cc(OC)c(OC)cc32)CC2c3ccccc3CCN2C1 (stereo unspecified)        inactive
11  Cc1ccc(C(C)(C)C)c(OP(=S)(S)Oc2cc(C)ccc2C(C)(C)C)c1.[Pb]        inactive

====

# method.description: NCI Yeast Anticancer Drug Screen. Data for the cln2 rad14 strain (AID 165);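 note: 0% = growth equal to vehicle treated cultures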
# experimental.setup: S. cerevisiae cln2 rad14 strain, at 5.0 µM (retest, dose inferred, filed as 0.5), stronger effect = higher value
The panel holds about 79,000 compounds, 15% with a hit somewhere; the sample as a whole holds those more often.
observed.property: growth inhibition (%)

> print(dat)
                                    compound  readout.value
 1  CCC[CH2][Sn]1([CH2]CCC)[O]C(=O)CN=Cc2ccccc2[O]1             91
 2                                NNc1ccccc1              0
 3  CC(=O)c1ccc(-[n+]2c(C)cc(-c3ccccc3)cc2C)cc1              3
 4  Cc1ccc([NH-])cc1C.Cc1ccc([NH-])cc1C.[Cl][Pt+2][Cl]             -8
 5                   S=c1[nH]c2ccccc2s1.[Pb]            -10
 6  O=[N+]([O-])c1ccc(SP(=S)(c2ccccc2)c2ccccc2)c([N+](=O)[O-])c1              5
 7                    CC[PH+](CC)CC.[Cl][Au]             92
 8  CCCCCCCCCCCCCC(=O)O[C@H]1CC[C@H](NC(=O)[C@H](OC)[C@H](O)[C@@H](O)[C@H](O)/C=C/C(C)C)C(=O)NC1             11
 9                              [Se]C1=NCCN1              6
10                            Sc1ccccc1.[Ag]             20
11                       O=C(O)C(F)(F)F.[Ag]             99
12                     O=C(CBr)Nc1ccc(Cl)cc1             98
13  ClC1=C(Cl)C2(Cl)C(Cl)CC1(Cl)C2(Cl)Cl (stereo not drawn)              0

====

# method.description: NCI Yeast Anticancer Drug Screen. Data for the rad50 strain (AID 155);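 note: 0% = growth of vehicle-only cultures of the same strain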
# experimental.setup: S. cerevisiae rad50 strain growth inhibition; at 50.0 µM
The panel holds about 79,000 compounds, 15% with a hit somewhere; the sample as a whole holds those more often. Calls of active or inactive are those of the source. Cut-off read from the data, not from the text of the source: active = growth inhibition above about 70%; inactive = the rest.
Classes used: label 1 = active, label 0 = inactive

compound	assigned.label
O=c1oc2ccccc2c(O)c1C(c1cnc2ccccc2c1)c1c(O)c2ccccc2oc1=O	label 0
COC1OC2COc3ccccc3OC2C(N=C(N)N[N+](=O)[O-])C1OS (stereo not given)	label 0
Cc1cccc(N)c1N	label 0
CCC1CN2CCC1CC2C(O)c1cc[n+]([O-])c2ccc(OC)cc12 (stereo not given)	label 0
C[P+](CCl)(CCl)CCl	label 0
O=C([CH-]C(=O)c1ccccc1)c1ccccc1.O=C([CH-]C(=O)c1ccccc1)c1ccccc1.O=C([CH-]C(=O)c1ccccc1)c1ccccc1.[Nd+3].[OH3+]	label 1
C[C@H]1CC(=O)C[C@@H]2CC[C@@H]3[C@H](CC[C@]4(C)C(OC(=O)c5cccc6c(=O)c7ccccc7[nH]c56)CC[C@@H]34)[C@]21C (stereo not given in full)	label 0
CCCCCCCCOC(=O)c1ccccc1C(=O)OCCCCCCCC	label 0
CC(=O)C(CN(CC(C)C)CC(C)C)C(c1ccccc1)c1c(O)c2ccccc2oc1=O (stereo not given)	label 1
CC12CCC(O)CC1CCC1C2CCC2(C)C(C3=CC(=O)OC3)CCC12 (stereo not given)	label 0

====

# method.description: NCI Yeast Anticancer Drug Screen. Data for the bub3 strain (AID 167)
# experimental.setup: S. cerevisiae bub3 mutant strain, at 50.0 µM, stronger effect = higher value
About 79,000 compounds went through this panel and 15% of them were active in at least one assay; those are over-represented in the sample as a whole.
observed.property: growth inhibition (%)

> print(dat)
                                   compound  observed.property  readout.value
1            COc1cc(Cl)c(OP(=O)(OC)OC)cc1Cl  growth inhibition          -1.05
2  NC(Cc1ccccc1)c1ccccc1 (centres undefined) (tested in a mixture with another compound)  growth inhibition            2.6
3  O=P(Oc1ccccc1)(Oc1ccccc1)C(O)C(Cl)(Cl)Cl (centres undefined)  growth inhibition              4
4  CCOC(=O)CNC(=O)C1C2c3ccccc3C(c3ccccc32)C1C(=O)O (centres undefined)  growth inhibition             94
5  CC(=O)OC[C@]12C[C@H](OC(=O)CC(C)C)C(C)=C[C@H]1OC1[C@H](O)[C@@H](OC(C)=O)[C@@]2(C)[C@@]12CO2  growth inhibition           92.2
6  CC1=CC(=O)CC2(C)CCC(C(C)CC(=O)CC(C)C)CC12OO (centres undefined)  growth inhibition           89.4
7  NC1CCCCC1.[O]=[Ge].[O]=[Ge].[O]=[Ge][OH].[O]=[Ge][OH]  growth inhibition           12.9
8  CC(=O)[O-].CC(=O)[O-].O=C(N/N=C/c1cc(Cl)cc(Cl)c1[OH2+])c1ccncc1.[Co+2]  growth inhibition             48
9  C/C=C/c1cc2n(c1)C(=O)c1cc(OC3OC(C)C(NC)C(C)(O)C3O)c(C)c(O)c1NC2O (centres undefined)  growth inhibition           14.2

====

# method.description: NCI Yeast Anticancer Drug Screen. Data for the bub3 strain (AID 167)
# experimental.setup: S. cerevisiae bub3 mutant strain, at 50.0 µM, stronger effect = higher value
The panel holds about 79,000 compounds, 15% with a hit somewhere; the sample as a whole holds those more often.
The compounds listed here are annotated with their growth inhibition.
observed.property: growth inhibition (%)

> print(dat)
                                    compound  readout.value
 1  COCC1OC(OC2C3=C(C(C)C)CCC3(C)/C=C3\C(CCC3(O)COC)C(C)C2O)C(O)C2OC3OC12OC3(C)C1CO1 (stereo unspecified)           31.6
 2              COc1cc2[nH]cc(CN(C)C)c2cc1OC          -0.25
 3  NC(Cc1ccc(Cl)cc1)P(=O)(O)O (stereo unspecified)          -12.1
 4             O=C1C(Cl)=C(Cl)C(=O)c2ccccc21           97.5
 5  CC(Cc1ccc(O)cc1)NCC(O)c1ccc(O)c(O)c1 (stereo unspecified)          -7.45
 6     CCCCCCCN1CCC(C(=O)CC)(c2cccc(O)c2)CC1           15.9
 7  COc1ccc2c(c1)C(=O)C(N)C2 (stereo unspecified)            7.4
 8  CCOP(=O)(O)C(Nc1ccc(N=Nc2ccccc2)cc1)c1ccc(C(Nc2ccc(N=Nc3ccccc3)cc2)P(=O)(O)OCC)cc1 (stereo unspecified)           57.5
 9  CC(=O)[O-].O=[N+]([O-])c1ccc([O-])c(C=NCCN=Cc2cc([N+](=O)[O-])ccc2[O-])c1.[Mn+3]           88.5
10                            ClCCCCCCCCCCCl          -15.2
11               c1ccc2c(c1)CN1Cc3ccccc3C2C1           2.65

Reference for the values: PubChem BioAssay (NCI)
